Kindly supply the reported pIC50 values for the records listed here.
target: HCV polymerase 1A (Δ21 NS5B, H77) (Hepatitis C virus genotype 1a, UniProt P27958); construct: 20 to 50 nM Δ21 NS5B; test: biochemical
Sequence (P27958 2421-2990, stated change not applied): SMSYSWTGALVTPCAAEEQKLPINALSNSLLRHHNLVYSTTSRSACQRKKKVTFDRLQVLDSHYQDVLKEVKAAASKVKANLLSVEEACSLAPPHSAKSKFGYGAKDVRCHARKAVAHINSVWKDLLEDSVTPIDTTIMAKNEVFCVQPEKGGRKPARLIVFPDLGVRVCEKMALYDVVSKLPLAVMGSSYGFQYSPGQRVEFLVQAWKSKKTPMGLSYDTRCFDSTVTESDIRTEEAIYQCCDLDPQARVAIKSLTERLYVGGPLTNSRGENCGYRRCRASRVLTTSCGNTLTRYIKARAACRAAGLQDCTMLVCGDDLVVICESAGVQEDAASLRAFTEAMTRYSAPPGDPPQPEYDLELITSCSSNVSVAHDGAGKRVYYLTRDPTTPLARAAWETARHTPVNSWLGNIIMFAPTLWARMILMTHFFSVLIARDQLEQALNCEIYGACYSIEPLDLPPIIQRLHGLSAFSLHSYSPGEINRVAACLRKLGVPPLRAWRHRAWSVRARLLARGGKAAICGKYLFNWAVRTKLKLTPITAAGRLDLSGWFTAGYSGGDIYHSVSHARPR
pIC50: −log10 of the molar value.

Batch: pIC50 for all items listed.
1. CC(C)(C)c1cc(/C=C/c2ccc([N+](=O)[O-])cc2)cc(N2CCC(=O)NC2=O)c1 [IA-L1-1.25]
2. COc1c(/C=C/c2ccc(NS(C)(=O)=O)cc2CNCCC(C)C)cc(-n2ccc(=O)[nH]c2=O)cc1C(C)(C)C [IB-L1-1.31]
3. COc1c(/C=C/c2ccc(NS(C)(=O)=O)cc2-c2ncc[nH]2)cc(-n2ccc(=O)[nH]c2=O)cc1C(C)(C)C [IB-L1-1.16]
4. COc1c(/C=C(\Cl)c2ccc([N+](=O)[O-])cc2)cc(N2CCC(=O)NC2=O)cc1C(C)(C)C [IA-L1-1.23]
5. CO/C(=C\c1cc(N2CCC(=O)NC2=O)cc(C(C)(C)C)c1OC)c1ccc(NS(C)(=O)=O)cc1 [IA-L1-1.17]
6. COc1c(/C=C/c2ccc(NS(C)(=O)=O)cc2)cc(-n2cc(F)c(=O)[nH]c2=O)cc1C(C)(C)C [IB-L1-1.2]
7. COc1c(/C=C/c2ccc(NS(C)(=O)=O)c(F)c2)cc(N2CCC(=O)NC2=O)cc1C(C)(C)C [IA-L1-1.26]
8. COc1c(/C=C\c2ccc(NS(C)(=O)=O)cc2)cc(-n2ccc(=O)[nH]c2=O)cc1C(C)(C)C [IB-L1-1.34]

["< 6.00", "7.00 to 8.00", "> 8.00", "6.00 to 7.00", "7.00 to 8.00", "7.00 to 8.00", "7.00 to 8.00", "< 6.00"]

Batch: pIC50 for all items listed.
1. CC(C)(C)c1cc(/C=C/c2ccc(NS(C)(=O)=O)cc2)cc(N2CCC(=O)NC2=O)c1 [IA-L1-1.16]
2. CNC(=O)c1cc(NS(C)(=O)=O)ccc1/C=C/c1cc(-n2ccc(=O)[nH]c2=O)cc(C(C)(C)C)c1OC [IB-L1-1.17]

> 8.00
> 8.00
